Form field: Concentration of radioactivity, spleen, Mean (one value per entry).
# Test system: grafted B16 F0 murine melanoma tumour
# PROTOCOL_DESCRIPTION: Biodistribution of the ^125I-labelled molecules in the melanoma-bearing mouse (autoradiography of whole-body sections)
# CONDITION_INFO: 1 H after i.v. administration, ^125I-labelled compound
Where a name gives a salt, the structure may show the parent alone.
REPORTED_ENDPOINT: Concentration of radioactivity, spleen, Mean (% ID/g)

| MOLECULE | READOUT_NUMBER |
| --- | --- |
| CCN(CC)CCNC(=O)c1ccc(I)nc1 [compound 7, dihydrochloride] | 5.44 |
| CCN(CC)CCNC(=O)c1cc2c(I)cccc2s1.Cl [compound 13] | 3.88 |
| CCN(CC)CCNC(=O)c1cc2cc(I)ccc2[nH]1 [compound 10, hydrochloride] | 8.09 |
| CCN(CC)CCNC(=O)c1ccc2cc(I)ccc2n1.Cl.Cl [compound 31] | 11.56 |
| CCN(CC)CCNC(=O)c1ccc2cc(I)ccc2c1 [compound 3, hydrochloride] | 9.70 |
| CCN(CC)CCNC(=O)c1nc2ccc(I)cc2[nH]1.Cl.Cl [compound 26] | 11.51 |
| CCN(CC)CCNC(=O)c1nc2ccccn2c1I [compound 16, dihydrochloride] | 8.16 |
